Test system: human skin
experimental-protocol: Skin irritation test of active ingredient (patch method, CTFA guidelines)
Format: in vivo
particulars: content 0.5%; Equation 1
experimental-endpoint: Degree of irritation
Give the figure by itself; no unit, no explanation.

O=C(O)CN1CCCN(CC(=O)O)CCN(CC(=O)O)CCCN(CC(=O)O)CC1 [Embodiment 9] ... 0
O=C(O)c1ccc(N2CCCN(c3ccc(C(=O)O)o3)CCN(c3ccc(C(=O)O)o3)CCCN(c3ccc(C(=O)O)o3)CC2)o1 [Embodiment 12] ... 0

Okay, next one:
Summary for this compound, O=C(O)CN1CCN(CC(=O)O)CCN(CC(=O)O)CCN(CC(=O)O)CC1 [Embodiment 5] : Degree of irritation is 0

----------
experimental-protocol: Formaldehyde removing ability test (GC)
particulars: 30 min; 2.0% formaldehyde solution, 3 molar equivalents, room temperature
experimental-endpoint: Area (formaldehyde, GC) (mAU * min)
Answer in mAU * min, number only, no unit symbol.

Example entries begin here.
O=C(O)c1ccc(N2CCN(c3ccc(C(=O)O)cc3)CCN(c3ccc(C(=O)O)cc3)CCN(c3ccc(C(=O)O)cc3)CC2)cc1 ... 0.183
O=C(O)c1ccc(N2CCCN(c3ccc(C(=O)O)o3)CCN(c3ccc(C(=O)O)o3)CCCN(c3ccc(C(=O)O)o3)CC2)o1 ... 0.170
O=C(O)CN1CCCN(CC(=O)O)CCN(CC(=O)O)CCCN(CC(=O)O)CC1 ... 0.182
O=C(O)CN1CCN(CC(=O)O)CCN(CC(=O)O)CCN(CC(=O)O)CC1 ... 0.179
O=C(O)c1ccc(N2CCN(c3ccc(C(=O)O)o3)CCN(c3ccc(C(=O)O)o3)CCN(c3ccc(C(=O)O)o3)CC2)o1 ... 0.168

Memo: `O=C(O)c1ccc(N(CCN(CCN(c2ccc(C(=O)O)cc2)c2ccc(C(=O)O)cc2)c2ccc(C(=O)O)cc2)CCN(c2ccc(C(=O)O)cc2)c2ccc(C(=O)O)cc2)cc1` , reported Area (formaldehyde, GC): 0.168

Recorded Area (formaldehyde, GC) (molecule `O=C(O)c1ccc(N(CCN(CCN(c2ccc(C(=O)O)o2)c2ccc(C(=O)O)o2)c2ccc(C(=O)O)o2)CCN(c2ccc(C(=O)O)o2)c2ccc(C(=O)O)o2)o1` ): 0.173

----------
System: human skin
experimental-protocol: Skin irritation test of active ingredient (patch method, CTFA guidelines)
Type: in vivo
particulars: content 0.1%; 20 subjects; 24 hours patch; apparent reddening
Collected Test result (number of subject) (+) values appear next to each entry.
The response must contain the number and no unit.

The molecule listed as `O=C(O)c1ccc(N2CCCN(c3ccc(C(=O)O)o3)CCN(c3ccc(C(=O)O)o3)CCCN(c3ccc(C(=O)O)o3)CC2)o1` shows Test result (number of subject) (+) equal to 0

So, `O=C(O)CN1CCN(CC(=O)O)CCN(CC(=O)O)CCN(CC(=O)O)CC1` ? Its Test result (number of subject) (+) was 0

Record `O=C(O)c1ccc(N(CCN(CCN(c2ccc(C(=O)O)o2)c2ccc(C(=O)O)o2)c2ccc(C(=O)O)o2)CCN(c2ccc(C(=O)O)o2)c2ccc(C(=O)O)o2)o1` , field Test result (number of subject) (+): 0

Recorded Test result (number of subject) (+) (molecule `O=C(O)c1ccc(N2CCN(c3ccc(C(=O)O)cc3)CCN(c3ccc(C(=O)O)cc3)CCN(c3ccc(C(=O)O)cc3)CC2)cc1` ): 0

Recorded result, `O=C(O)CN1CCCN(CC(=O)O)CCN(CC(=O)O)CCCN(CC(=O)O)CC1` , Test result (number of subject) (+): 0

----------
Test system: human skin
experimental-protocol: Skin irritation test of active ingredient (patch method, CTFA guidelines)
Format: in vivo
particulars: content 1.0%; 20 subjects; 24 hours patch; slightly reddish
experimental-endpoint: Test result (number of subject) (±)

O=C(O)c1ccc(N(CCN(CCN(c2ccc(C(=O)O)cc2)c2ccc(C(=O)O)cc2)c2ccc(C(=O)O)cc2)CCN(c2ccc(C(=O)O)cc2)c2ccc(C(=O)O)cc2)cc1 ... 1

The measured Test result (number of subject) (±) associated with `O=C(O)CN1CCN(CC(=O)O)CCN(CC(=O)O)CCN(CC(=O)O)CC1` reads 1

// Test result (number of subject) (±) lookup, compound = `O=C(O)c1ccc(N(CCN(CCN(c2ccc(C(=O)O)o2)c2ccc(C(=O)O)o2)c2ccc(C(=O)O)o2)CCN(c2ccc(C(=O)O)o2)c2ccc(C(=O)O)o2)o1` , result: 1

----------
System: human skin
experimental-protocol: Skin irritation test of active ingredient (patch method, CTFA guidelines)
Format: in vivo
particulars: content 0.1%; 20 subjects; 24 hours patch; reddened and swollen
Property: Test result (number of subject) (++); scope: individual compounds
Respond with the number and no other words.

O=C(O)CN1CCCN(CC(=O)O)CCN(CC(=O)O)CCCN(CC(=O)O)CC1 ... 0

For record `O=C(O)c1cncc(N2CCN(c3cncc(C(=O)O)c3)CCN(c3cncc(C(=O)O)c3)CCN(c3cncc(C(=O)O)c3)CC2)c1` the listed Test result (number of subject) (++) is 0

So for `O=C(O)c1cncc(N2CCCN(c3cncc(C(=O)O)c3)CCN(c3cncc(C(=O)O)c3)CCCN(c3cncc(C(=O)O)c3)CC2)c1` , the logged Test result (number of subject) (++) turned out to be 0

Looking up `O=C(O)c1ccc(N(CCN(CCN(c2ccc(C(=O)O)o2)c2ccc(C(=O)O)o2)c2ccc(C(=O)O)o2)CCN(c2ccc(C(=O)O)o2)c2ccc(C(=O)O)o2)o1` , I see its Test result (number of subject) (++) listed as 0

Noted for `O=C(O)c1ccc(N(CCN(CCN(c2ccc(C(=O)O)cc2)c2ccc(C(=O)O)cc2)c2ccc(C(=O)O)cc2)CCN(c2ccc(C(=O)O)cc2)c2ccc(C(=O)O)cc2)cc1` : its Test result (number of subject) (++) reads 0

Briefly, Test result (number of subject) (++) measured for NCCNCCNCCN [Trientine, Triethylenetetramine, reference compound] : 0

----------
The following compounds are listed with their measured Degree of irritation values.
Test system: human skin
experimental-protocol: Skin irritation test of active ingredient (patch method, CTFA guidelines)
Type: in vivo
particulars: content 1.0%; Equation 1
Description: A total of 20 people (10 men and 10 women in their 20s and 30s) were tested for skin irritation using the patch method according to the guidelines of CTFA (The Cosmetic, Toiletry & Fragrance Association, Inc. Washington, D.C.). […] After 24 hours, the pin chamber was removed, and skin conditions were visually observed. The degree and grade for skin irritation were calculated according to the following Equation 1, and the results are shown in Table 3 below. […]
Enter the number alone.

Example cases with answers are listed next.
O=C(O)c1cncc(N2CCN(c3cncc(C(=O)O)c3)CCN(c3cncc(C(=O)O)c3)CCN(c3cncc(C(=O)O)c3)CC2)c1 ... 0
O=C(O)CN1CCN(CC(=O)O)CCN(CC(=O)O)CCN(CC(=O)O)CC1 ... 0.05
O=C(O)c1cncc(N2CCCN(c3cncc(C(=O)O)c3)CCN(c3cncc(C(=O)O)c3)CCCN(c3cncc(C(=O)O)c3)CC2)c1 ... 0.10

Consider `C1CNCCNCCNCCN1` . Its measured Degree of irritation is 0.15

----------
// Test result (number of subject) (±) lookup, one value per entry
Tested on: human skin
experimental-protocol: Skin irritation test of active ingredient (patch method, CTFA guidelines)
Type: in vivo
particulars: content 1.0%; 20 subjects; 24 hours patch; slightly reddish

Below, 5 compounds whose answers are already recorded.
NCCNCCNCCN [Trientine, Triethylenetetramine, reference compound] ... 3
O=C(O)c1cncc(N2CCCN(c3cncc(C(=O)O)c3)CCN(c3cncc(C(=O)O)c3)CCCN(c3cncc(C(=O)O)c3)CC2)c1 [Embodiment 11] ... 2
O=C(O)c1ccc(N2CCCN(c3ccc(C(=O)O)cc3)CCN(c3ccc(C(=O)O)cc3)CCCN(c3ccc(C(=O)O)cc3)CC2)cc1 [Embodiment 10] ... 1
O=C(O)c1ccc(N2CCN(c3ccc(C(=O)O)o3)CCN(c3ccc(C(=O)O)o3)CCN(c3ccc(C(=O)O)o3)CC2)o1 [Embodiment 8] ... 2
O=C(O)CN1CCCN(CC(=O)O)CCN(CC(=O)O)CCCN(CC(=O)O)CC1 [Embodiment 9] ... 2

Sample O=C(O)c1ccc(N2CCCN(c3ccc(C(=O)O)o3)CCN(c3ccc(C(=O)O)o3)CCCN(c3ccc(C(=O)O)o3)CC2)o1 [Embodiment 12] ; Test result (number of subject) (±) observed: 1

Note to self: Test result (number of subject) (±) recorded for O=C(O)CN(CCN(CCN(CC(=O)O)CC(=O)O)CC(=O)O)CCN(CC(=O)O)CC(=O)O [Embodiment 1] was 4

Lab note: measured Test result (number of subject) (±) of O=C(O)c1cncc(N2CCN(c3cncc(C(=O)O)c3)CCN(c3cncc(C(=O)O)c3)CCN(c3cncc(C(=O)O)c3)CC2)c1 [Embodiment 7] was 0

// recorded Test result (number of subject) (±) for C1CNCCNCCNCCN1 [Cyclen, 1,4,7,10-tetraazacyclododecane] : 1

The reported Test result (number of subject) (±) of the compound O=C(O)c1ccc(N2CCN(c3ccc(C(=O)O)cc3)CCN(c3ccc(C(=O)O)cc3)CCN(c3ccc(C(=O)O)cc3)CC2)cc1 [Embodiment 6] was 1

Data origin, for the record: patent US11274268B2
